- Test system: 786-0
- EXPERIMENTAL PROTOCOL: NCI tumour cell line growth inhibition, 48 h
Structures can show the parent of a compound that is named as a salt. The source made the active and inactive calls. Rule as the data show it: active = GI50 up to about 1.1 µM and inactive = higher. Starred links: 1 amine or outer side, 2 acyl side, 3 side chain; linkers in the order of their positions; H or OH if unused. Non-standard residues stand in square brackets, D forms with d. Residues, ends and D or L forms follow the SMILES beside them. ξ: configuration not given here. Ile(3ξ) = CCC(C)[C@H](N)C(=O)O; X35 = C=CCC(O[*:1])C(=O)[*:2]; NMeV = CN[C@H](C(=O)O)C(C)C; NMeA = CN[C@@H](C)C(=O)O; βAla = NCCC(=O)O
Form entry, call: pick from TRUE = active, FALSE = inactive

Fill in: this test's call for CC1=N/C(=C\c2ccc([N+](=O)[O-])cc2)C(=O)O1 is ___
FALSE

GET /call?item= CC(=O)Nc1sc(Br)cc1S(=O)(=O)c1ccc(Cl)cc1 returns the recorded outcome of this test.
FALSE

In this assay, the call recorded for O=C1C(Cl)=C(Cl)C(=O)N1c1ccc(F)cc1 [FLUOROIMIDE] was what?
FALSE

GET /call?item= O=c1c(C(c2ccc(/C=C/c3ccccc3)cc2)c2c(O)oc3cc(O)ccc3c2=O)c(O)oc2cc(O)ccc12 returns the recorded outcome of this test.
FALSE

Name the outcome recorded for CCOC(=O)C(Cc1ccccc1)NC(=O)c1nc[nH]c1/N=N/N(C)C (configuration not stated) in the assay.
FALSE

For O=C(O)CCSc1ncnc2[nH]cnc12 , what call appears in the results of this test?
FALSE

Identify the outcome logged in this assay for the compound shown: CC(C)NC(=O)OCc1c(COC(=O)NC(C)C)c(-c2cc[n+](COC(=O)C(C)(C)C)cc2)n2c1CCC2
FALSE

Answer briefly: the call reported for CC(C)(C)n1c(=O)n2n(c1=O)Cc1cccc3cccc(c13)C2 in this assay.
FALSE

Recorded test outcome, item N#CC1(N2CCCC2)CCC2(CC1)OCCO2
FALSE

Call for entry Cc1cc(S(=O)(=O)Nc2nc3ccccc3[nH]2)c(S)cc1Cl :
FALSE

Identify the outcome logged in this assay for the compound shown: CC(C)(C)OC(=O)C1/C(=C/CBr)CN1C(=O)OC(C)(C)C (configuration not stated)
FALSE

Each compound tested received a call. Report the one for N#Cc1nc(C#N)c(NC(=O)c2ccccc2C(=O)O)[nH]1 .
FALSE

For CCCc1c(C(=O)OCC)[nH]c(-c2ccc(-c3[nH]c(C(=O)OCC)c(CCC)c3C(=O)OCC)s2)c1C(=O)OCC , which call appears in the assay record?
FALSE

Hi, do you know how Cc1ccc(-c2cn3c(nc4ccccc43)c(C)n2)cc1 came out in this test?
FALSE

Outcome logged for COC(=O)CSc1nc2[nH]c(SC)c(C(N)=O)c2c(=O)n1-c1ccccc1 in this assay:
FALSE

Recorded test outcome, item O=C1c2c(Br)sc(Br)c2[C@@H](Cl)[C@H]1Cl
FALSE

Any idea what this test logged for CCOc1ccnc2c(OC)c(C)c3nc4ccccc4nc3c12 ?
FALSE

Give the logged outcome of this assay for the following compound: NC(CC1=CS(=O)(=O)c2ccc(Cl)cc21)C(=O)O (configuration not stated)
FALSE

Tell me the assay call for Oc1ccccc1CNCc1ccccc1O please.
FALSE

Returns: the outcome recorded for CC(=O)OC1CCn2c1nc1c2C(=O)C=C(N2CC2)C1=O (configuration not stated) in this assay.
TRUE

For c1ccc2c(c1)cc1ccc3cccc4ccc2c1c34 , which call appears in the assay record?
FALSE

Fill in: this test's call for C=CCC1OC(=O)CCNC(=O)[C@H](C)N(C)C(=O)[C@H](C(C)C)N(C)C(=O)[C@H](C(C)CC)NC(=O)[C@@H]2CCCN2C1=O (some centres not stated) (cyclo([Ile(3ξ)][NMeV][NMeA][βAla][X35]P)) is ___
FALSE

Just curious, what result did C/C(=N\NC(=O)CC#N)c1c(O)cc(C)oc1=O get here?
FALSE

Dear colleague, could you share the recorded outcome for Cc1ccc(S(=O)(=O)N[C@@H](Cc2ccccc2)C(=O)CCl)cc1 when you have a moment?
FALSE

Please indicate how the test categorized O=C(/C=C/C=C/c1ccccc1)c1ccc2c(c1)CCCC2 .
FALSE

Call for entry N#Cc1c2c(c(N=P(c3ccccc3)(c3ccccc3)c3ccccc3)n3c1nc1ccccc13)CCCC2 :
FALSE

Could you kindly confirm the outcome this assay logged for n1onc2c1NC1Nc3nonc3NC1N2 (configuration not stated) ?
FALSE

# outcome recorded in this test, key = CN(C)c1nc(Oc2nc(N(C)C)nc(N(C)C)n2)nc(N(C)C)n1
FALSE

Give the logged outcome of this assay for the following compound: O=C(O)c1cncc(C(=O)O)c1
FALSE

Recorded test outcome, item CCC1=CC(OCc2ccccc2)C(CCN(Cc2ccccc2)C(=O)OCc2ccccc2)C1 (configuration not stated)
FALSE

Query: recorded result category for CO[C@H]1C=C[C@]23c4cc5c(cc4CN(CC2O)[C@@H]3C1)OCO5 (some centres not stated) in this test
FALSE

What was the test verdict on CC(=O)OC1C2CCC3C(C)(O)C4CC(O)C(C)(C)C4(O)C(O)CC13CC2(C)O (configuration not stated) ?
FALSE

Give the logged outcome of this assay for the following compound: COc1cc2c(cc1O)C1CC(CC3CCCCN31)OC(=O)/C=C\c1ccc(O)c-2c1 (configuration not stated)
FALSE

Would you mind telling me which call this test gave COc1cc2cc(C(=O)N3CC(CCl)c4ccc([N+](=O)[O-])cc43)[nH]c2c(OC)c1OC (configuration not stated) ?
FALSE

Can you look up the reported call for COc1ccc(/C=C2\N=C(c3ccccc3)N(C3Nc4cc5c(cc4S3)NC(N3C(=O)/C(=C/c4ccc(OC)cc4)N=C3c3ccccc3)S5)C2=O)cc1 (configuration not stated) for me?
FALSE

# fetch the recorded call for CC1=NCCc2c1[nH]c1cc(O)ccc21 [HARMALOL HYDROCHLORIDE] here
FALSE

So what was the verdict on O=c1cc2n(c(=O)[nH]1)C1OC(C(O)C1O)[C@@H]2CCO (some centres not stated) in this test?
FALSE

Which result was noted for this compound in the test: Cn1cc(-c2n[nH]c(-c3ccc(Cl)cc3)nc2=O)c2ccccc21
FALSE

Given O=C(O)CCNCCCCNCCC(=O)O , state the outcome it received in this test.
FALSE

Can you look up the reported call for Nc1nc(Cl)c2ncn(CCCC(c3ccccc3)P(=O)(O)O)c2n1 (configuration not stated) for me?
FALSE

# outcome recorded in this test, key = Cc1c2ccncc2c(C)c2c1[nH]c1ccc(OC(C)(C)C)cc12
FALSE

// param item: CC1(CC(=O)O)OC2CCCCCC2O1.NCc1ccccc1 (configuration not stated) ; yields the recorded call
FALSE

###

- Tested on: SNB-78
- EXPERIMENTAL PROTOCOL: NCI tumour cell line growth inhibition, 48 h
Activity calls are given as the source filed them. Rule as the data show it: active = GI50 up to about 1.1 µM and inactive = higher.
Give GI50 for every item shown.

Which GI50 value belongs to O[C@]12c3ccccc3C1CCCCC2N1CCOCC1 (some centres undefined) ?
> 100 µM (inactive)

# lookup: GI50 of CCSC1=C(C)N(/C=N/C(C)(C)C)CC1
> 100 µM (inactive)

So what does the record say about GI50 for CCCCCC/C=C/CCCCCCCc1cccc(O)c1C(=O)O ?
> 100 µM (inactive)

Fill in: GI50 of N#CC1(N2CCCC2)CCC2(CC1)OCCO2 is ___
> 100 µM (inactive)

Report GI50 for N#C/C(=C\c1cc(O)ccc1O)C(N)=O please.
25.6 µM (inactive)

For COc1ccc(Nc2nc3cc(C(F)(F)F)ccc3nc2-c2ccccc2)cc1OC , what is its reported GI50?
25.4 µM (inactive)

Need GI50 of CCOC(OCC)C(CC)[Se]c1ccccc1[N+](=O)[O-] (centres undefined) , thanks.
7.76 µM (inactive)

Give its GI50 value. Item: O=C(COC(=O)c1cccc2c(=O)c3ccccc3[nH]c12)Nc1ccc(C(=O)O)cc1
59.3 µM (inactive)

Give its GI50 value. Item: COc1cc(CC(=O)O)c([N+](=O)[O-])cc1OC
> 100 µM (inactive)

###

- Tested on: HL-60
- EXPERIMENTAL PROTOCOL: NCI tumour cell line growth inhibition, 48 h
Where a name gives a salt, the structure may show the parent alone. Active and inactive are the calls of the source. Rule as the data show it: active = GI50 up to about 1.1 µM and inactive = higher.
RECORDED ENDPOINT: GI50

Entry CC(=O)OC1C2CCC3C(C)(O)C4CC(O)C(C)(C)C4(O)C(O)CC13CC2(C)O (stereo unspecified) : reported GI50 = ?
> 100 µM (inactive)

Which GI50 is listed for O=C(O)c1ccccc1C(=O)NCC1S(=O)(=O)OCCOS1(=O)=O ?
> 100 µM (inactive)

# get_value(readout='GI50', item= CCCCc1ccc(Nc2nc(N)c3[nH]cnc3n2)cc1 )
18.7 µM (inactive)

Recorded GI50 for CC(=O)Nc1sc(Br)cc1S(=O)(=O)c1ccc(Cl)cc1 , please?
21.9 µM (inactive)

Value lookup for GI50; key = O=C(O)CCSC(CC1(c2ccc(Cl)cc2)NC(=O)CCS1)c1ccccc1 (stereo unspecified)
3.44 µM (inactive)

What value of GI50 has been reported for the following compound? CN(C)CCCn1c(Cc2ccc(Cl)cc2)nc2cc(C(F)(F)F)ccc21
29.6 µM (inactive)

// returns reported GI50 for input CCCCc1ccc(Nc2ncc3ncn(COCCO)c3n2)cc1
23.8 µM (inactive)

Query (compound): C1=C(c2ccccc2)SC=C(c2ccccc2)S1 ; field requested: GI50
65.9 µM (inactive)

// GI50 lookup, key: COc1ccc(O)c2c1C(=O)CCCC2=O
> 100 µM (inactive)

Quick one: GI50 for CNCCC=C1c2ccccc2CCc2ccccc21 [NORTRIPTYLINE HYDROCHLORIDE] ?
16.1 µM (inactive)

Look up GI50 for this compound: Cn1c([N+](=O)[O-])cnc1CN1CCN(CCO)CC1
> 100 µM (inactive)
